TESTED_SYSTEM: recombinant human DPPI (Cathepsin C) (Homo sapiens (Human))
Sequence (P53634 231-394): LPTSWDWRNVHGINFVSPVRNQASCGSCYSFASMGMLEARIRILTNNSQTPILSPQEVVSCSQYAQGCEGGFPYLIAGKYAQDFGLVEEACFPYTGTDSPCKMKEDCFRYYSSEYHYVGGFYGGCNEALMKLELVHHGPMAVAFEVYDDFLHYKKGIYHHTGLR
Sequence (P53634 395-463): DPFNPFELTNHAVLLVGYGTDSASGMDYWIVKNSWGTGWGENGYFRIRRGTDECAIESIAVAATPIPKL
Sequence (P53634 25-134): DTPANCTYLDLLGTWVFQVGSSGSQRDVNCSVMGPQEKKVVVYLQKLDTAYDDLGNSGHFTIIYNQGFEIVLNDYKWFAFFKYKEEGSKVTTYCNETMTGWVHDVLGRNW
ASSAY: Inhibition of human DPPI (Cathepsin C)
PARTICULARS: substrate Gly-Arg-AMC
Excerpt: Inhibition of Human DPPI (Cathepsin C) Bovine serum albumin (BSA; Prod. No. A3059) and Dithiothreitol (DTT; Prod. No D0632) were from Sigma. […] The DPP1 inhibitor Gly-Phe-DMK was purchased from MP Biomedicals (Prod.-No. 03DK00625). The recombinant human DPPI was purchased from Prozymex. All other materials were of highest grade commercially available. […]
MEASUREMENT_NAME: pIC50
// pIC50 here means minus log10 of the molar concentration (mol/L)

Look up recombinant human DPPI (Cathepsin C) (Homo sapiens (Human)) data: pIC50 of N#C[C@H](Cc1ccc(-c2cnc(N3CCOCC3)s2)cc1F)NC(=O)[C@H]1N[C@@H]2CC[C@H]1C2 [Example 59] , then report it.
8.07

Look up recombinant human DPPI (Cathepsin C) (Homo sapiens (Human)) data: pIC50 of N#Cc1ccc2c(c1)[nH]c(=O)c1cc(CC(C#N)NC(=O)[C@H]3N[C@@H]4CC[C@H]3C4)c(F)cc12 (stereo partly shown) [Example 292] , then report it.
9.05

Look up recombinant human DPPI (Cathepsin C) (Homo sapiens (Human)) data: pIC50 of CN1CCC(Oc2ccc(C[C@@H](C#N)NC(=O)[C@H]3N[C@@H]4CC[C@H]3C4)c(F)c2)CC1 [Example 319] , then report it.
7.76

Look up recombinant human DPPI (Cathepsin C) (Homo sapiens (Human)) data: pIC50 of N#CC(Cc1ccc2c(c1)c(=O)[nH]c1cc(Cl)ccc12)NC(=O)[C@H]1N[C@@H]2CC[C@H]1C2 (stereo partly shown) [Example 297] , then report it.
8.49

Look up recombinant human DPPI (Cathepsin C) (Homo sapiens (Human)) data: pIC50 of N#C[C@H](Cc1ccc(-c2cnn(CC3CCOCC3)c2)c(F)c1F)NC(=O)[C@H]1N[C@@H]2CC[C@H]1C2 [Example 218] , then report it.
7.72

Look up recombinant human DPPI (Cathepsin C) (Homo sapiens (Human)) data: pIC50 of N#CC(Cc1ccc2c(c1)c(=O)[nH]c1c(C(=O)NC3CC3)cccc12)NC(=O)[C@H]1N[C@@H]2CC[C@H]1C2 (stereo partly shown) [Example 341] , then report it.
8.12

Look up recombinant human DPPI (Cathepsin C) (Homo sapiens (Human)) data: pIC50 of N#C[C@H](Cc1ccc(-c2ccc(S(N)(=O)=O)cc2)cc1F)NC(=O)[C@H]1N[C@H]2C[C@@H]1[C@@H]1C[C@@H]12 [Example 136] , then report it.
7.99
